From: patent US10670605B2

Collected isoTOP-ABPP ratio (reactivity profile), Q6L8Q7_C108 values appear next to each entry.
# target: UniProt:Q6L8Q7
# Sequence (Q6L8Q7 43-609): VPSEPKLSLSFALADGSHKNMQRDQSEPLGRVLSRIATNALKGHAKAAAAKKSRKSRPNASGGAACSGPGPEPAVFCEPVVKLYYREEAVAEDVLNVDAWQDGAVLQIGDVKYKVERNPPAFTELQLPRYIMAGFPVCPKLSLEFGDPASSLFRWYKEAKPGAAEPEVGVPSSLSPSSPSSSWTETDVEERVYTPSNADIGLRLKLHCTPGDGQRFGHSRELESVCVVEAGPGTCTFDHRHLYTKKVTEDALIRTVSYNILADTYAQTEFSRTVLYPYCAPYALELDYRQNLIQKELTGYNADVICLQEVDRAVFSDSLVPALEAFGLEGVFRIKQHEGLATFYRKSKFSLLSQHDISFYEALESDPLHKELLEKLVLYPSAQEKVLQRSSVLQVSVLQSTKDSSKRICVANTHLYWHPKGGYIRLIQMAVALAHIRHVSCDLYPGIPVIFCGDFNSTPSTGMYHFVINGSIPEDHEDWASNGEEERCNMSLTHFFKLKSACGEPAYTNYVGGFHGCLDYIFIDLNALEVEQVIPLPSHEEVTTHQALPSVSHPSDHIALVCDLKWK
# procedure-summary: Competitive isoTOP-ABPP, cell lysates
# Format: binding
# protocol-conditions: 500 μm in-vitro ramos

CC(C)CCOCCNC(=O)CCl ... 1.3
COc1ccccc1OCCNC(=O)CCl ... 1.2
CC(Br)C(=O)Nc1cc(C(F)(F)F)cc(C(F)(F)F)c1 (centres unmarked) ... 1.4
CCN(CC)c1ccc(S(N)(=O)=O)cc1NC(=O)CCl ... 1.1

# evaluate next
Data request: Consider the compound shown here: O=C(/C=C/c1ccccc1)Nc1cc(C(F)(F)F)cc(C(F)(F)F)c1 What is its recorded isoTOP-ABPP ratio (reactivity profile), Q6L8Q7_C108?
Data returned: 1.1

----------
Collected isoTOP-ABPP ratio (reactivity profile), P68036_C86 values appear next to each entry.
# target: UBE2L3 C86 (P68036) (Homo sapiens, UniProt P68036)
# procedure-summary: Competitive isoTOP-ABPP, cell lysates
# Format: binding
# protocol-conditions: 500 μm in-vitro ramos_231
Reply with just the number.

Reference set, count: 5
CC(Cl)C(=O)Nc1cc(C(F)(F)F)cc(C(F)(F)F)c1 (stereo not drawn) ... 1.5
O=C(CCl)NC12CC3CC(CC(C3)C1)C2 ... 1.2
COc1ccccc1OCCNC(=O)CCl ... 1.4
N#C/C(=C\c1cc(C(F)(F)F)cc(C(F)(F)F)c1)C(N)=O ... 7.4
O=C(CCl)N1CCN(CC(=O)N2CCOCC2)CC1 ... 0.9

# evaluate next
Data request: Consider the compound shown here: O=C(CCl)N1CCC(C(O)(c2ccccc2)c2ccccc2)CC1 What is its recorded isoTOP-ABPP ratio (reactivity profile), P68036_C86?
Data returned: 1.1

----------
# target: cysteines in MDA-MB-231 and Ramos cells (Homo sapiens, UniProt Q9BTE3)
# procedure-summary: Competitive isoTOP-ABPP in situ (fragment-treated cells)
# Format: cell-based
# protocol-conditions: 200 μM, insitu, 231
Please mark true if the recorded isoTOP-ABPP ratio Q9BTE3_C325 is equal to or greater than 1, and false if it falls below.

Cc1ccc(C=C(C#N)C(=O)NCCN2CCOCC2)cc1 ... false
CC1CCc2ccccc2N1C(=O)CCl (centres unmarked) ... true
C=CC(=O)Nc1cc(F)c(N2CCN(C(=O)OC(C)(C)C)CC2)c(F)c1 ... true

Data request: Would you say C=CC(=O)N(Cc1cccnc1)c1cc(C(F)(F)F)cc(C(F)(F)F)c1 shows isoTOP-ABPP ratio Q9BTE3_C325 at minimum 1?
Data returned: true

----------
# target: MGMT C150 (P16455) (Homo sapiens)
# Sequence (P16455 1-207): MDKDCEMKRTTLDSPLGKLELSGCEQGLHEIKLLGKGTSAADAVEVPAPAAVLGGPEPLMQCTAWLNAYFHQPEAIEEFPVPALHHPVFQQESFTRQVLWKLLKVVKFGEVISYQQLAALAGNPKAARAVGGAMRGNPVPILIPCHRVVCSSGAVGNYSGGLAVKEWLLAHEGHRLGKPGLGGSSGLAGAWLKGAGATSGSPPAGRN
# procedure-summary: Competitive isoTOP-ABPP, cell lysates
# Type: binding
# protocol-conditions: 500 μM, invitro, ramos
# Experimental: TEV digests were pressure loaded onto a 250 μm (inner diameter) fused silica capillary column packed with C18 resin (Aqua 5 μm, Phenomenex). The samples were analyzed by multidimensional liquid chromatography tandem mass spectrometry (MudPIT), using an LTQ-Velos Orbitrap mass spectrometer (Thermo Scientific) coupled to an Agilent 1200-series quaternary pump. […]
Collected isoTOP-ABPP ratio, P16455_C150 values appear next to each entry.
Reply with just the number.

Reference set, count: 4
O=C(CCl)NCCc1c[nH]c2ccccc12 [compound 13] ... 4.2
Cn1cc(S(=O)(=O)N2CCOCC2)cc1C(=O)NC(=O)CCl [compound 11] ... 20.0
O=C(CCl)NC(=O)NC12CC3CC(CC(C3)C1)C2 [compound 12] ... 20.0
C=CC(=O)N(c1ccccc1)c1ccc(Br)cc1 [compound 5] ... 9.6

# evaluate next
Data request: Consider the molecule shown here: O=C(CCl)N1CCN(S(=O)(=O)c2ccccc2F)CC1 [compound 10] What is its recorded isoTOP-ABPP ratio, P16455_C150?
Data returned: 20.0

----------
# target: ZNF217 C286 (O75362) (Homo sapiens, UniProt O75362)
# procedure-summary: Competitive isoTOP-ABPP, cell lysates
# Format: binding
# protocol-conditions: 500 μm, in-vitro_ramos
Collected isoTOP-ABPP reactivity ratio, O75362_C286 values appear next to each entry.
Reply with just the number.

C=CC(=O)N1CCC(c2noc3ccc(F)cc23)CC1 [compound 37] ... 0.9
C=CC(=O)Nc1cc(F)c(N2CCN(C(=O)OC(C)(C)C)CC2)c(F)c1 [compound 38] ... 1.2
CCN(CC)c1ccc(S(N)(=O)=O)cc1NC(=O)CCl [compound 30] ... 2.1

# evaluate next
Data request: Consider the molecule shown here: Cc1ccc(C=C(C#N)C(=O)NCCN2CCOCC2)cc1 [compound 41] What is its recorded isoTOP-ABPP reactivity ratio, O75362_C286?
Data returned: 0.6

----------
# target: cysteines in MDA-MB-231 and Ramos cells (Homo sapiens, UniProt O60825)
# procedure-summary: Competitive isoTOP-ABPP in situ (fragment-treated cells)
# Assay type: cell-based
# protocol-conditions: 200 μM, insitu, ramos
Collected isoTOP-ABPP ratio O60825_C158 values appear next to each entry.
Reply with just the number.

O=C(CCl)N1CCN(CC(=O)N2CCOCC2)CC1 ... 0.9
O=C(CCl)N1CCN(S(=O)(=O)c2ccccc2F)CC1 ... 1.2

# evaluate next
Data request: Consider the molecule shown here: O=C(CCl)NCCc1c[nH]c2ccccc12 What is its recorded isoTOP-ABPP ratio O60825_C158?
Data returned: 0.9

----------
# target: cysteines in MDA-MB-231 and Ramos cells (Homo sapiens, UniProt Q9NYL9)
# procedure-summary: Competitive isoTOP-ABPP in situ (fragment-treated cells)
# Type: cell-based
# protocol-conditions: 200 μM, insitu, 231
Please mark true if the recorded isoTOP-ABPP ratio Q9NYL9_C132 is equal to or greater than 0.7, and false if it falls below.

Data request: Would you say C=CC(=O)Nc1cc(F)c(N2CCN(C(=O)OC(C)(C)C)CC2)c(F)c1 [compound 38] shows isoTOP-ABPP ratio Q9NYL9_C132 at minimum 0.7?
Data returned: true

----------
# target: UniProtKB Q15306
# procedure-summary: Competitive isoTOP-ABPP, cell lysates
# Type: binding
# protocol-conditions: 500 μM, invitro, ramos
Response field label takes 1 when isoTOP-ABPP ratio, Q15306_C194 is strictly below 2 and -1 in all other cases.

Here's what some known entries look like.
O=C(CCl)N1CCN(S(=O)(=O)c2ccccc2F)CC1 ... -1
O=C(CCl)NC(=O)NC12CC3CC(CC(C3)C1)C2 ... -1
C=CC(=O)N(c1ccccc1)c1ccc(Br)cc1 ... -1
Cn1cc(S(=O)(=O)N2CCOCC2)cc1C(=O)NC(=O)CCl ... -1

Next:
Data request: Hello, is isoTOP-ABPP ratio, Q15306_C194 of the following compound strictly smaller than 2? O=C(CCl)NCCc1c[nH]c2ccccc12
Data returned: 1

----------
Collected isoTOP-ABPP ratio (reactivity profile), P24752_C126 values appear next to each entry.
# target: ACAT1 C126 (P24752) (Homo sapiens)
# procedure-summary: Competitive isoTOP-ABPP, cell lysates
# Type: binding
# protocol-conditions: 500 μm in-vitro ramos
Reply with just the number.

Reference set, count: 4
O=C(CCl)NC12CC3CC(CC(C3)C1)C2 ... 1.4
N#C/C(=C\c1cc(C(F)(F)F)cc(C(F)(F)F)c1)C(N)=O ... 0.8
O=C(CCl)N1CCN(CC(=O)N2CCOCC2)CC1 ... 0.8
O=C(CCl)N1CCOCC1 ... 1.7

# evaluate next
Data request: Consider the molecule shown here: COc1ccccc1OCCNC(=O)CCl What is its recorded isoTOP-ABPP ratio (reactivity profile), P24752_C126?
Data returned: 1.6
